Test system: HepG2
Experiment: Cytotoxicity data HepG2 CC20 (uM)
Format: functional
Result Type: CC20 (µM)
All answers are understood in µM, so give the number only.

Please review the following examples before continuing.
1) C[C@H](C(N)=O)N1CCCC[C@@H]1c1ccc(OCc2cccc(F)c2)cc1 = 21.8
2) Clc1cccc(C(c2ccc(CN3CCNCC3)cc2)n2ccnc2)c1 (configuration not stated) = 15.2
3) O=C1N(Cc2cc3ccccc3s2)CC2CN(Cc3ccccc3)CCN12 (configuration not stated) = 26.4
4) CC(C)(C)n1nc(Cc2cccc3ccccc23)c2c(N)ncnc21 = 19
5) NS(=O)(=O)c1cncc(-c2ccc3nccc(-c4cn[nH]c4)c3n2)c1 = 0.49

Item Cc1cccc(NC(=O)c2cc(S(=O)(=O)N(C)c3ccc(F)cc3)ccc2Cl)n1 has what recorded CC20?
26.4

Try the compound O=C(Nc1cccc(Cl)c1)c1cnc(N2CCN(c3ccncc3)CC2)c(Cl)c1
2.68

Check Cc1nc(-c2ccccn2)nc(NCCc2ccc(S(C)(=O)=O)cc2)c1Cl too.
27.9

One more compound: N=C(N)c1ccc(-c2cc(-c3ccccc3)on2)cc1
2.64

What would you report for Cc1ncc(-c2ccnc(Nc3ccc(S(C)(=O)=O)cc3)n2)n1C(C)C ?
0.18

Note, next up: Nc1nccc2ccc(-c3ccc4nccn4c3)cc12
5.41

Next: COc1cc(C2=NCCN2)cc2cc(-c3ccc(C4=NCCN4)cc3)oc12
14.3

What do you get for O=S(=O)(c1ccc(Cl)cc1)N1CCN(C(=S)NCc2ccco2)CC1 ?
28.3

And Cc1nc(-c2ccccn2)nc(N2CCC(Cc3ccccc3)C2)c1Cl (configuration not stated) ?
10.2

Now give it for O=C(Nc1c(O)cccc1-c1nc2c(C(=O)O)cccc2o1)c1cc(-c2ccccc2)on1 too.
5.73

Try this compound too: Nc1ncc(-c2cn[nH]c2)cc1-c1nc2cc(Cl)cnc2[nH]1
2.82

What do we get for CC1=Nc2ccc(Cl)cc2C(O)(c2ccc(C)cc2)N1CCN1CCCCC1 (configuration not stated) ?
10
